All figures here come from PubChem BioAssay (NCI).

Test system: T-47D breast
Assay: NCI tumour cell line growth inhibition, 48 h
Measured TGI accompanies every entry in the list below.
measured_property: TGI

• CN1CCC(CNC(=O)CCCCCCCCC(=O)NCC2(c3ccccc3)CCN(C)CC2)(c2ccccc2)CC1 = > 100 µM
• COC(=O)Nc1nc2ccc(Oc3ccc4nc(NC(=O)OC)[nH]c4c3)cc2[nH]1 = > 100 µM
• Cc1cccc(-n2c(C)nc3ccc(NC4OC(CO)C(O)C(O)C4O)cc3c2=O)c1 (stereo not given) = > 100 µM
• C=CCn1c(=O)c2cnc(Nc3ccc(N4CCN(C)CC4)cc3)nc2n1-c1ccc2c(n1)[C@@](O)(CC)CC2 = > 80.7 µM
• Oc1ccc(Cl)cc1-c1[nH]c(=S)nc(-c2ccccc2)c1Cl = > 100 µM
• O=c1oc2cc(N=Cc3ccccc3Cl)ccc2c2ccccc12 = > 100 µM
• COc1ccc(N)c(C(O)CCNC(C)=O)c1 (stereo not given) = > 100 µM
• CCN(CC)CCNc1ccc2ncn3c4c(OC)ccc(OC)c4c(=O)c1c23 = > 100 µM
• Cc1cc2cccnc2c2ncccc12 = 21.3 µM
• O[C@@]1(c2cccs2)c2cccc(Cl)c2[C@](O)(c2cccs2)c2cccc(Cl)c21 = > 100 µM
• COc1cc(N2CCN(C(C)C)CC2)ccc1Nc1nc(Nc2cccc3ncccc23)c2cc[nH]c2n1 = 13.6 µM
• CCCCC1Cc2ccccc2-c2n1c1ccccc1[n+]2C (stereo not given) = 7.3 µM
• O=c1cc(CO)n(CCc2c[nH]c3ccccc23)cc1O = 80.5 µM
• Cc1nc2ccccc2c(=O)n1-c1n[nH]c2ccccc12 = > 100 µM
• Cc1c(C)c2c(c(C)c1NC(=O)/C=C\C(=O)O)CCC(C)(CCCC(C)CCCC(C)CCCC(C)C)O2 (stereo not given) = 4.78 µM
• CN(C)CCNc1ccc2ncnc3c2c1C(=O)c1ccccc1-3 = 24.7 µM
• FC(F)(F)c1nc2ccc(SSc3ccc4nc(C(F)(F)F)[nH]c4c3)cc2[nH]1 = > 100 µM
• CC(N=C(N)N)C(=O)O (stereo not given) = > 100 µM
• Cc1cc(Cc2cc(C)c(O)c(C)c2)cc(C)c1O = 72 µM
• CCC(CS(=O)(=O)O)[N+](=O)[O-] (stereo not given) = > 100 µM

====

System: HOP-62 NSCLC
Assay: NCI tumour cell line growth inhibition, 48 h
Response key: class 1 means TGI >= 30 µM; class 0 means TGI < 30 µM.

- C/C(=N/NC(=O)c1ccncc1)c1ccc(NC(=O)C(=O)Nn2c(=S)[nH]c3ccccc3c2=O)cc1: class 1
- CCN(CC)C(=O)CC1=C(C)/C(=C/c2[nH]c(-c3ccc[nH]3)cc2OC)N=C1C: class 0
- COC(=O)c1ccc(Oc2nc3ccccc3nc2-c2cccs2)cc1: class 0
- NC(N)=NS(=O)(=O)c1ccc(Nc2c3ccccc3nc3c(C(=O)N4CCN(CCO)CC4)cccc23)cc1: class 1
- CCOc1cc(-c2nc3ccccn3c2/N=C/c2cc([N+](=O)[O-])cc([N+](=O)[O-])c2O)ccc1O: class 1
- C=CCC1C(=O)C(C(=O)OC)N2CCc3c([nH]c4ccccc34)C12 (stereo unspecified): class 1
- COC(=O)CCC1(C)C2CCC1(C)/C(=N/O)C2 (stereo unspecified): class 1
- COC(=O)Nc1nc2ccc(Oc3ccc4nc(NC(=O)OC)[nH]c4c3)cc2[nH]1: class 1
- COc1cc2ccccc2c2cc([N+](=O)[O-])oc12: class 1
- CO[C@H]1O[C@@H]2CO[C@@H](c3ccccc3)O[C@H]2[C@@H]2CC=CCC[C@]12O: class 1
- Oc1ccc(Cl)cc1-c1[nH]c(=S)nc(-c2ccccc2)c1Cl: class 1
- CC(C)(C)OC(=O)NC1CC=CCC1NC(=O)OC(C)(C)C (stereo unspecified): class 1
- O=S(=O)(Nc1cc(Br)c(O)c2ccccc12)c1ccc(F)cc1: class 0
- CC1(c2cccc3c2C2(O)C=CC4(CCC32)OCCO4)OCCO1 (stereo unspecified): class 1
- COc1cc(=O)oc(/C=C/C=O)c1C: class 1
